- System: NALM-6;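 note: growth inhibition of NALM-6 cells, read out with a cell viability assay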
- assay.notes: cells
- Assay type: functional, cell-based
- stated.conditions: Homo sapiens
- Description: SANGER: Inhibition of human NALM-6 cell growth in a cell viability assay.
assay.endpoint: IC50 (nM)
Number in nM, nothing else.

Prompt line: Notebook: pull reported IC50 for NALM-6, entry O=C(/C=C/c1ccccc1)NC(NC(=S)Nc1cccc2cccnc12)C(Cl)(Cl)Cl (stereo unspecified)
Response line: 13100

Prompt line: Queued: Cc1cc([C@@H](C)Nc2ccccc2C(=O)O)c2nc(N3CCOCC3)cc(=O)n2c1
Response line: 705

Prompt line: Queued: C=CCc1cccc(/C=N/NC(=O)CN2CCN(Cc3ccccc3)CC2)c1O
Response line: 703

* * *

- Tested on: SF-295
- assay.notes: cells
- Assay type: functional, cell-based, Homo sapiens
- stated.conditions: Homo sapiens, SF-295; read-out: IC50
- Description: SANGER: Inhibition of human SF295 cell growth in a cell viability assay.
pIC50: −log10 of the molar value.
# Lookup of reported pIC50 keyed by entry

Take a look at these entries with their results.
> print(dat)
                                   compound  value.observed
1  Cc1cnc(-c2cnc(NCCNc3ccc(C#N)cn3)nc2-c2ccc(Cl)cc2Cl)[nH]1 [LADUVIGLUSIB]          < 5.59
2  C=CCc1cccc(/C=N/NC(=O)CN2CCN(Cc3ccccc3)CC2)c1O [PAC-1]          < 5.59
3  Cc1ccc(Nc2nccc(N(C)c3ccc4c(C)n(C)nc4c3)n2)cc1S(N)(=O)=O [PAZOPANIB]          < 5.10

Prompt line: Entry under review: COc1cc(F)c(F)c(Nc2ccc(I)cc2F)c1NS(=O)(=O)C1(CC(O)CO)CC1 (centres undefined) . Reported pIC50?
Response line: < 5.30

* * *

- Test system: LAMA-84
- assay.notes: cells
- Assay type: functional, cell-based
- stated.conditions: Homo sapiens
- Description: SANGER: Inhibition of human LAMA-84 cell growth in a cell viability assay.
assay.endpoint: pIC50
Hey, just a heads up that pIC50 is the negative log base 10 of the concentration in molar.

molecule	assay.endpoint	value.observed
CCC1=C[C@@H]2CN(C1)Cc1c([nH]c3ccccc13)[C@@](C(=O)OC)(c1cc3c(cc1OC)N(C)[C@H]1[C@@](O)(C(=O)OC)[C@H](OC(C)=O)[C@]4(CC)C=CCN5CC[C@]31[C@@H]54)C2 [VINORELBINE]	pIC50	7.34

Would you kindly look at the next entry?
Prompt line: Entry under review: CN1CCN(CCOc2cc(OC3CCOCC3)c3c(Nc4c(Cl)ccc5c4OCO5)ncnc3c2)CC1 [SARACATINIB] . Reported pIC50?
Response line: 6.80

* * *

- Tested on: GOTO;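 note: growth inhibition of GOTO cells, read out by a cell viability assay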
- assay.notes: cells
- Type: functional, cell-based, Homo sapiens
- stated.conditions: Homo sapiens, GOTO
- Description: SANGER: Inhibition of human GOTO cell growth in a cell viability assay.
pIC50: −log10 of the molar value.
# Lookup of reported pIC50 keyed by entry

molecule	system.tested	assay.endpoint	value.observed
CCOc1nc(NC(=O)Cc2cc(OC)ccc2OC)cc(N)c1C#N	GOTO	pIC50	< 5.00
CN(Cc1cnc2nc(N)nc(N)c2n1)c1ccc(C(=O)N[C@@H](CCC(=O)O)C(=O)O)cc1 [METHOTREXATE]	GOTO	pIC50	< 6.70
COc1ccc(-c2ccc3c(N4CCOC[C@@H]4C)nc(N4CCOC[C@@H]4C)nc3n2)cc1CO	GOTO	pIC50	5.76
Cn1cncc1[C@@](N)(c1ccc(Cl)cc1)c1ccc2c(c1)c(-c1cccc(Cl)c1)cc(=O)n2C	GOTO	pIC50	< 4.80
CCc1nc(N)nc(N)c1-c1ccc(Cl)cc1	GOTO	pIC50	< 4.70
CO[C@H]1C[C@@H]2CC[C@@H](C)[C@@](O)(O2)C(=O)C(=O)N2CCCC[C@H]2C(=O)O[C@H]([C@H](C)C[C@@H]2CC[C@@H](O)[C@H](OC)C2)CC(=O)[C@H](C)/C=C(\C)[C@@H](O)[C@@H](OC)C(=O)[C@H](C)C[C@H](C)/C=C/C=C/C=C/1C	GOTO	pIC50	< 7.00

Prompt line: Entry under review: Cc1ccc(Nc2nccc(N(C)c3ccc4c(C)n(C)nc4c3)n2)cc1S(N)(=O)=O . Reported pIC50?
Response line: < 5.10
